- tested_on: UniProt:Q8ILY1
- protocol_details: Fluorescence-based high-throughput DNA polymerase assay (molecular beacon), primary screen and dose-response
- Type: biochemical
- study_conditions: DRC-2; 40'; concentration 10
Listed below: % inhibition Apol 40' values for each entry.
Numbers only; they are read as %.

A selection of reference data follows.
compound | value_type | uom | value_observed
O=C1N=C(Nc2cccc(Cl)c2Cl)S/C1=C\c1ccco1 [Molecule 3, O=C1N=C(S/C/1=C\c1ccco1)Nc1cccc(c1Cl)Cl] | % inhibition Apol 40' | % | 58
Cc1ccccc1C(=O)N1CCc2c(nc3cc(-c4ccccc4)[nH]n3c2=O)C1 | % inhibition Apol 40' | % | 22
O=C1CSC2=NC3=C(CCc4ccccc43)C(c3cccs3)N12 (centres unmarked) | % inhibition Apol 40' | % | 28
COc1cccc(C(=O)N2CCc3c(nc4cc(-c5ccccc5)[nH]n4c3=O)C2)c1OC | % inhibition Apol 40' | % | 45
COc1ccc(-c2cc3nc4c(c(=O)n3[nH]2)CCN(C(=O)CCc2ccccc2)C4)cc1 | % inhibition Apol 40' | % | 35
Cc1cccc(CC(=O)N2CCc3c(nc4cc(-c5ccccc5)[nH]n4c3=O)C2)c1 | % inhibition Apol 40' | % | 54

// next item, % inhibition Apol 40' requested
IN: Kindly state the measured % inhibition Apol 40' obtained for `COCCN(CCOC)Cc1c(O)ccc2c1OC(=Cc1cc(Br)ccc1OC)C2=O` with UniProt:Q8ILY1.
OUT: 36

---

Listed below: % inhibition apPOL 180' values for each entry.
- tested_on: P. falciparum apicoplast DNA polymerase (Pf-apPOL) (Plasmodium falciparum)
- protocol_details: Fluorescence-based high-throughput DNA polymerase assay (molecular beacon), primary screen and dose-response
- Assay type: biochemical
- study_conditions: DRC-2; concentration 2.5; 180'
Numbers only; they are read as %.

A selection of reference data follows.
molecule | tested_on | uom | % inhibition apPOL 180'
CCCN1COc2ccc3c(=O)c(-c4ccccc4)coc3c2C1 | P. falciparum apicoplast DNA polymerase (Pf-apPOL) (Plasmodium falciparum) | % | -2.43
Cc1cc(C)nc(Nc2nc(CC(=O)Nc3nc(-c4ccco4)cs3)cs2)n1 | P. falciparum apicoplast DNA polymerase (Pf-apPOL) (Plasmodium falciparum) | % | 3.63
COc1ccc(C=C2Oc3c(ccc4c3CN(Cc3ccco3)CO4)C2=O)c(OC)c1 | P. falciparum apicoplast DNA polymerase (Pf-apPOL) (Plasmodium falciparum) | % | -6
O=C(Cn1ccc2c(=O)[nH]ccc21)Nc1ccccc1Cl [Molecule 19, O=C(Cn1ccc2c1cc[nH]c2=O)Nc1ccccc1Cl] | P. falciparum apicoplast DNA polymerase (Pf-apPOL) (Plasmodium falciparum) | % | -0.373
O=[N+]([O-])c1ccc(SCc2ccco2)c2cccnc12 | P. falciparum apicoplast DNA polymerase (Pf-apPOL) (Plasmodium falciparum) | % | 26

IN: # % inhibition apPOL 180' lookup, item `O=C1c2ccccc2C(=O)c2c1oc1c3c(ccc21)OCN(C1CCCC1)C3`
OUT: 15

IN: # % inhibition apPOL 180' lookup, item `CCc1ccccc1NC(=O)c1ccc(-c2ncccc2NC(C)=O)cc1`
OUT: -5.44

IN: # % inhibition apPOL 180' lookup, item `COc1ccc(NC(=O)Cn2nc3c(cc2=O)CCC3)cc1Cl`
OUT: 8

---

- tested_on: P. falciparum apicoplast DNA polymerase (Pf-apPOL) (Plasmodium falciparum, UniProt Q8ILY1)
- Sequence (Q8ILY1 entry or part of it): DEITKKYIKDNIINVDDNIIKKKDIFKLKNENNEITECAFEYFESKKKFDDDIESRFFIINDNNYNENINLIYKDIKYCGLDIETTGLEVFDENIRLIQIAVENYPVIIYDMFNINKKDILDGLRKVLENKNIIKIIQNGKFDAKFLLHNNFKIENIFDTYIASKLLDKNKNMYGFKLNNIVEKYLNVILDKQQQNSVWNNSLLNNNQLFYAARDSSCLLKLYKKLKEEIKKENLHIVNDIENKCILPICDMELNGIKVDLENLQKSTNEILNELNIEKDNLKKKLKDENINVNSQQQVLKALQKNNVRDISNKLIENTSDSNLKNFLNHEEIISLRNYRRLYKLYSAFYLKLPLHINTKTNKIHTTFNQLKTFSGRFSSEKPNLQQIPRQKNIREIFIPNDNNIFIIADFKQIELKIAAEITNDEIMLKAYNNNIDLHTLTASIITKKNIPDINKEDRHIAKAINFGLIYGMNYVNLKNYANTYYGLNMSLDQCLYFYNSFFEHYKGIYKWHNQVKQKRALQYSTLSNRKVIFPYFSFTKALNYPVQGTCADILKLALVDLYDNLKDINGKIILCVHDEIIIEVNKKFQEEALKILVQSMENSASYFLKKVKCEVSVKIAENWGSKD
- protocol_details: Fluorescence-based high-throughput DNA polymerase assay (molecular beacon), primary screen and dose-response;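 on % inhibition Apol 40': compound concentration given in µM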
- Assay type: biochemical
- study_conditions: DRC-2; 40'; concentration 2.5
value_type: % inhibition Apol 40' (%)
Numbers only; they are read as %.

IN: # % inhibition Apol 40' lookup, item COc1ccc(NC(=O)Cn2ccc3c(=O)[nH]ccc32)cc1 [Molecule 13, COc1ccc(cc1)NC(=O)Cn1ccc2c1cc[nH]c2=O]
OUT: 5.45

---

- tested_on: P. falciparum apicoplast DNA polymerase (Pf-apPOL) (Plasmodium falciparum, UniProt Q8ILY1)
- protocol_details: Fluorescence-based high-throughput DNA polymerase assay (molecular beacon), primary screen and dose-response;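 on % inhibition Apol 40': compound concentration given in µM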
- Assay type: biochemical
- study_conditions: DRC-2; 40'; concentration 20
value_type: % inhibition Apol 40' (%)
Numbers only; they are read as %.

molecule | % inhibition Apol 40', %
Cc1cc(C)cc(-n2nc3c(c2NC(=O)c2ccco2)CSC3)c1 [KU0055926] | 60
Cc1ccc(C)n1-c1ccc(C(=O)NNC(=O)c2ccc3nccnc3c2)cc1 [Molecule 53] | 50
COc1cccc(C(=O)N2CCc3c(nc4cc(-c5ccccc5)[nH]n4c3=O)C2)c1OC [Molecule 22] | 61
COc1ccc(C(=O)N2CCc3c(nc4cc(-c5ccccc5Cl)[nH]n4c3=O)C2)cn1 [Molecule 26] | 56
O=C(Nc1nnc(-c2ccno2)o1)c1ccc2c(c1)OCO2 [KU0171343] | 14

// next item, % inhibition Apol 40' requested
IN: # % inhibition Apol 40' lookup, item C=CC1=C(C)c2cc3[nH]c(cc4nc(cc5[nH]c(cc1n2)c(C)c5CCC(=O)O)C(CCC(=O)O)=C4C)c(C)c3C=C [Molecule 91]
OUT: 70

---

Listed below: % inhibition Apo pol 5' values for each entry.
- tested_on: P. falciparum apicoplast DNA polymerase (Pf-apPOL) (Plasmodium falciparum, UniProt Q8ILY1)
- protocol_details: Fluorescence-based high-throughput DNA polymerase assay (molecular beacon), primary screen and dose-response
- Type: biochemical
- study_conditions: DRC-2; concentration 40; 5'
Numbers only; they are read as %.

A selection of reference data follows.
compound | tested_on | value_type | value_observed
Cc1ccnc(NS(=O)(=O)c2ccc(-n3cccc3)cc2)n1 [KU0034899] | P. falciparum apicoplast DNA polymerase (Pf-apPOL) (Plasmodium falciparum, UniProt Q8ILY1) | % inhibition Apo pol 5' | 52
Cc1ccc(C2=N/C(=C\c3ccc(I)o3)C(=O)O2)cc1[N+](=O)[O-] [KU0073890] | P. falciparum apicoplast DNA polymerase (Pf-apPOL) (Plasmodium falciparum, UniProt Q8ILY1) | % inhibition Apo pol 5' | 58
CCCCCc1c2c(cc(O)c1C(=O)O)OC(=O)c1c(cc(OC)cc1C(=O)CCCC)O2 [Molecule 24] | P. falciparum apicoplast DNA polymerase (Pf-apPOL) (Plasmodium falciparum, UniProt Q8ILY1) | % inhibition Apo pol 5' | 49

IN: # % inhibition Apo pol 5' lookup, item O=C(O)c1nc(-c2ccccc2)nc2c1OCO2 [Molecule 45, OC(=O)c1nc(nc2c1OCO2)c1ccccc1]
OUT: 58

IN: # % inhibition Apo pol 5' lookup, item COc1ccc(NC(=O)Cn2nc3c(cc2=O)CCC3)cc1Cl [Molecule 4, COc1ccc(cc1Cl)NC(=O)Cn1nc2CCCc2cc1=O]
OUT: 50

IN: # % inhibition Apo pol 5' lookup, item O=C(Cn1ccc2c(=O)[nH]ccc21)Nc1ccccc1Cl [Molecule 19, O=C(Cn1ccc2c1cc[nH]c2=O)Nc1ccccc1Cl]
OUT: 37

IN: # % inhibition Apo pol 5' lookup, item O=[N+]([O-])c1ccc(SCc2ccco2)c2cccnc12 [KU0034480]
OUT: 48

---

Listed below: % inhibition Apo pol 10' values for each entry.
- tested_on: UniProt:Q8ILY1
- protocol_details: Fluorescence-based high-throughput DNA polymerase assay (molecular beacon), primary screen and dose-response
- Assay type: biochemical
- study_conditions: DRC-1; 10'; concentration 2.5
Numbers only; they are read as %.

IN: # % inhibition Apo pol 10' lookup, item O=C(Cc1cc(=O)[nH]c(SCc2ccccc2)n1)Nc1ccc2c(c1)OCO2 [Molecule 46]
OUT: -0.9773

IN: # % inhibition Apo pol 10' lookup, item COc1ccc(-c2cc(=O)c3cc(O)ccc3o2)cc1OC [KU0193655]
OUT: -0.1967

IN: # % inhibition Apo pol 10' lookup, item CCOc1ccc(/C=C2\N=C(c3cc([N+](=O)[O-])cc([N+](=O)[O-])c3)OC2=O)cc1 [Molecule 97]
OUT: 32.0109

---

- tested_on: UniProt:Q8ILY1
- protocol_details: Fluorescence-based high-throughput DNA polymerase assay (molecular beacon), primary screen and dose-response
- Assay type: biochemical
- study_conditions: DRC-2, 180', concentration 2.5
- Description: The HT assay employs a molecular beacon, a stem-loop DNA template with a Cy3 dye and the Black Hole Quencher on the 3′ and 5′ ends of the DNA, respectively. Pf-apPOL concentration is based on a calculated absorptivity of ε280 = 56750 M^−1 cm^−1. […] To identify apPOL inhibitors we utilised our previously developed high-throughput DNA polymerase assay. […] The assay accurately recapitulates the kinetic behaviour of apPOL, as measured through more conventional low-throughput gel-based assays. […]
Listed below: % inhibition apPOL 180' values for each entry.
Numbers only; they are read as %.

A selection of reference data follows.
compound | value_observed
O=C(NNC(=O)C(F)(F)Sc1ccccc1)c1ccsc1 [Molecule 68, O=C(C(Sc1ccccc1)(F)F)NNC(=O)c1cscc1] | -3.39
Cc1nn(CC(=O)NCCSCc2ccco2)c(C)c1Br [KU0267182] | 0.763
O=[N+]([O-])c1cc2c(cc1CN1CCN(c3cccc(Cl)c3)CC1)OCO2 [KU0005610] | -7.6
CN(C)C=C1SCc2ccccc2C1=O [Molecule 77, CN(C=C1SCc2c(C1=O)cccc2)C] | -3
CN1CC(=Cc2ccco2)C(=O)C(=Cc2ccco2)C1 [Molecule 65, CN1CC(=Cc2ccco2)C(=O)C(=Cc2ccco2)C1] | 8

// next item, % inhibition apPOL 180' requested
IN: # % inhibition apPOL 180' lookup, item O=C(O)c1c(F)c(F)c(-c2c(F)c(F)c(C(=O)O)c(F)c2F)c(F)c1F [KU0008974]
OUT: -4
